# credit: patent US20090298834A1

target: human α1H T-type channels (Homo sapiens, UniProt O95180); experiment: T-type calcium channel block, whole cell patch clamp (α1H); details: HEK cells stably expressing human α1H; mainly non-inactivated protocol; values above 10 μM represented as 10 μM
Sequence (O95180 whole entry): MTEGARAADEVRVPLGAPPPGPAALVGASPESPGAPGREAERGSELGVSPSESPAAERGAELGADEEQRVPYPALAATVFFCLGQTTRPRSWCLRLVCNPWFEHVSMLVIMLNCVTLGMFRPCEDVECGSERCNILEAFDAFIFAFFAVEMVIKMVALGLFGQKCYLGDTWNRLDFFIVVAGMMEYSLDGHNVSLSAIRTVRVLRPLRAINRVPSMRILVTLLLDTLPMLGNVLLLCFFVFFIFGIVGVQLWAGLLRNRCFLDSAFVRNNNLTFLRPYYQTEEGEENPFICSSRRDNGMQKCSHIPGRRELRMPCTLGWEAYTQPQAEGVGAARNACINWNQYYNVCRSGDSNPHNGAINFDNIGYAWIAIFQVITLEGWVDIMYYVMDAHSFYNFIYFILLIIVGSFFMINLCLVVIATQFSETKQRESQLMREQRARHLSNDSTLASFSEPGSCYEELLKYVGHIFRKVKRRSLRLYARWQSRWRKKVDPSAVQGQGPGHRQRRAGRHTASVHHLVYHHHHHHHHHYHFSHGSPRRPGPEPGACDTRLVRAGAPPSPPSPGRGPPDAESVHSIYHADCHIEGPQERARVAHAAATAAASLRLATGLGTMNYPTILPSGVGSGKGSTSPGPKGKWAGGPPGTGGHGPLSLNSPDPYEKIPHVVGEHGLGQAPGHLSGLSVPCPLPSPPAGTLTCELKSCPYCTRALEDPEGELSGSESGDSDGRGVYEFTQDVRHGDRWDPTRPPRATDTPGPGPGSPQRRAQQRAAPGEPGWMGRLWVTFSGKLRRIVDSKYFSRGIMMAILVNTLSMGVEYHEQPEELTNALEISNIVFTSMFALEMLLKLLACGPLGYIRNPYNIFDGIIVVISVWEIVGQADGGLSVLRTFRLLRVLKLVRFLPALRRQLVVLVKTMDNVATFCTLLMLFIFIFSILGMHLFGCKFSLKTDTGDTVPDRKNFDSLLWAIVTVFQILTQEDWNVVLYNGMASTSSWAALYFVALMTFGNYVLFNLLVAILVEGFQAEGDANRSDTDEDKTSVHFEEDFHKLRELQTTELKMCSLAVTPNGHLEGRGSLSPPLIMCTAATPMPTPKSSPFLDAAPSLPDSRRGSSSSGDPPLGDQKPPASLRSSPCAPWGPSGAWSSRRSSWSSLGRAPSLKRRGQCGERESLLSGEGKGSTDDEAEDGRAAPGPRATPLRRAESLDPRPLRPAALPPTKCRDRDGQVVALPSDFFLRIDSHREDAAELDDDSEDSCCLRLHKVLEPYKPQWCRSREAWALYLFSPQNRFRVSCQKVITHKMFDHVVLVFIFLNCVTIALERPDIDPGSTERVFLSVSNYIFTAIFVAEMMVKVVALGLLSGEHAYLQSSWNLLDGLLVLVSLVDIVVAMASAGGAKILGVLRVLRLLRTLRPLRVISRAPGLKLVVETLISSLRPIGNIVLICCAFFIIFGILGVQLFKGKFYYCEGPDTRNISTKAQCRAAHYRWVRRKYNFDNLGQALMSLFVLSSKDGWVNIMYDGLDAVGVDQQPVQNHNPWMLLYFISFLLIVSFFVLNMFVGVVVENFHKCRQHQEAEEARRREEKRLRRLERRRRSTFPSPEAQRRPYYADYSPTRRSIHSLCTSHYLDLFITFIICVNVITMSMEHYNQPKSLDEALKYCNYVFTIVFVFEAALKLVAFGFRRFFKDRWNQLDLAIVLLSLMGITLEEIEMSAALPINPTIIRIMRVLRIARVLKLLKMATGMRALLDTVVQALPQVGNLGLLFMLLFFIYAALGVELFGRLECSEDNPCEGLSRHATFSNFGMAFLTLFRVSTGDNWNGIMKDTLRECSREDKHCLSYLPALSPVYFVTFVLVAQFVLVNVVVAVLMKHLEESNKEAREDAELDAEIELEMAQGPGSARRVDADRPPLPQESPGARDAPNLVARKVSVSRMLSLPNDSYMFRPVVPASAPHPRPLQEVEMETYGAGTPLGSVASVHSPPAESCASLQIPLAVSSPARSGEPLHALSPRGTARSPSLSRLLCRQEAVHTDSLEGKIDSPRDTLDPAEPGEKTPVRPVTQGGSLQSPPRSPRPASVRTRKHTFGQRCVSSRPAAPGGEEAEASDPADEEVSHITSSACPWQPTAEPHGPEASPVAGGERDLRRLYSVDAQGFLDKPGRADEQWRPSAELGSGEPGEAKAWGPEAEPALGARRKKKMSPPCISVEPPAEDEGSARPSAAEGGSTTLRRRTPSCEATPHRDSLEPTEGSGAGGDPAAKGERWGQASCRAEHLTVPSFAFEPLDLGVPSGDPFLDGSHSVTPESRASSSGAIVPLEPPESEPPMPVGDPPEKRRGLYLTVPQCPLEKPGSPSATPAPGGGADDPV
measured.metric: log10 of IC50 (log10 of the value in nM)
Answers are given as log10 of IC50 in nM.

Worked examples, 10 compounds total:
# compound, log10 of IC50
data = [
    ("O=C(CN[C@H]1CC[C@@H](CNC(=O)c2cc(C(F)(F)F)cc(C(F)(F)F)c2)CC1)NCC1CCCCC1", 2.40),
    ("COc1cc(F)cc(C(=O)NC[C@H]2CC[C@@H](NCC(=O)N(C)C(C)(C)C)CC2)c1", 2.67),
    ("O=C(CN[C@H]1CC[C@@H](CNC(=O)c2cc(C(F)(F)F)cc(C(F)(F)F)c2)CC1)NN1CCCCC1", 2.65),
    ("COc1cc(C(=O)NC[C@H]2CC[C@@H](NCCNC(=O)OC(C)(C)C)CC2)cc(C(F)(F)F)c1", 2.93),
    ("COc1ccccc1CN[C@H]1CC[C@@H](CNC(=O)c2cc(F)cc(C(F)(F)F)c2)CC1", 3.00),
    ("CC1CCCCN1C(=O)CN[C@H]1CC[C@@H](CNC(=O)c2cc(C(F)(F)F)cc(C(F)(F)F)c2)CC1 (stereo partly drawn)", 2.36),
    ("CC1(NC(=O)CN[C@H]2CC[C@@H](CNC(=O)c3cc(F)cc(Cl)c3)CC2)CCC1", 2.36),
    ("CC(C)(C)CC(=O)NCCN[C@H]1CC[C@H](CNC(=O)c2cc(C(F)(F)F)cc(C(F)(F)F)c2)CC1", 3.31),
    ("CC(C)(C)OC(=O)N[C@H]1CC[C@@H](CC(=O)Nc2cc(C(F)(F)F)cc(C(F)(F)F)c2)CC1", 3.78),
    ("COc1cccnc1CN[C@H]1CC[C@H](CNC(=O)c2cc(C(F)(F)F)cc(C(F)(F)F)c2)CC1", 3.77),
]

Item: `O=C(C[C@H]1CC[C@@H](NC(=O)[C@@H]2CCCN2)CC1)Nc1cc(C(F)(F)F)cc(C(F)(F)F)c1` | log10 of IC50: 4.00

Item: `COc1cc(F)cc(C(=O)NC[C@H]2CC[C@H](NCC(=O)N(C)C(C)(C)C)CC2)c1` | log10 of IC50: 3.38

Item: `CC(C)(C)NC(=O)CN[C@H]1CC[C@H](CNC(=O)c2cc(C(F)(F)F)cc(C(F)(F)F)c2)CC1` | log10 of IC50: 2.57

Item: `O=C(C[C@H]1CC[C@@H](NC(=O)[C@H]2CCCN2)CC1)Nc1cc(C(F)(F)F)cc(C(F)(F)F)c1` | log10 of IC50: 3.90

###

biological target: human α1G T-type channels (Homo sapiens, UniProt O43497); assay: T-type calcium channel block, whole cell patch clamp (α1G); details: HEK cells stably expressing human α1G; mainly non-inactivated protocol; values above 10 μM represented as 10 μM, values below 0.30 μM represented as 0.30 μM
Sequence (O43497 whole entry): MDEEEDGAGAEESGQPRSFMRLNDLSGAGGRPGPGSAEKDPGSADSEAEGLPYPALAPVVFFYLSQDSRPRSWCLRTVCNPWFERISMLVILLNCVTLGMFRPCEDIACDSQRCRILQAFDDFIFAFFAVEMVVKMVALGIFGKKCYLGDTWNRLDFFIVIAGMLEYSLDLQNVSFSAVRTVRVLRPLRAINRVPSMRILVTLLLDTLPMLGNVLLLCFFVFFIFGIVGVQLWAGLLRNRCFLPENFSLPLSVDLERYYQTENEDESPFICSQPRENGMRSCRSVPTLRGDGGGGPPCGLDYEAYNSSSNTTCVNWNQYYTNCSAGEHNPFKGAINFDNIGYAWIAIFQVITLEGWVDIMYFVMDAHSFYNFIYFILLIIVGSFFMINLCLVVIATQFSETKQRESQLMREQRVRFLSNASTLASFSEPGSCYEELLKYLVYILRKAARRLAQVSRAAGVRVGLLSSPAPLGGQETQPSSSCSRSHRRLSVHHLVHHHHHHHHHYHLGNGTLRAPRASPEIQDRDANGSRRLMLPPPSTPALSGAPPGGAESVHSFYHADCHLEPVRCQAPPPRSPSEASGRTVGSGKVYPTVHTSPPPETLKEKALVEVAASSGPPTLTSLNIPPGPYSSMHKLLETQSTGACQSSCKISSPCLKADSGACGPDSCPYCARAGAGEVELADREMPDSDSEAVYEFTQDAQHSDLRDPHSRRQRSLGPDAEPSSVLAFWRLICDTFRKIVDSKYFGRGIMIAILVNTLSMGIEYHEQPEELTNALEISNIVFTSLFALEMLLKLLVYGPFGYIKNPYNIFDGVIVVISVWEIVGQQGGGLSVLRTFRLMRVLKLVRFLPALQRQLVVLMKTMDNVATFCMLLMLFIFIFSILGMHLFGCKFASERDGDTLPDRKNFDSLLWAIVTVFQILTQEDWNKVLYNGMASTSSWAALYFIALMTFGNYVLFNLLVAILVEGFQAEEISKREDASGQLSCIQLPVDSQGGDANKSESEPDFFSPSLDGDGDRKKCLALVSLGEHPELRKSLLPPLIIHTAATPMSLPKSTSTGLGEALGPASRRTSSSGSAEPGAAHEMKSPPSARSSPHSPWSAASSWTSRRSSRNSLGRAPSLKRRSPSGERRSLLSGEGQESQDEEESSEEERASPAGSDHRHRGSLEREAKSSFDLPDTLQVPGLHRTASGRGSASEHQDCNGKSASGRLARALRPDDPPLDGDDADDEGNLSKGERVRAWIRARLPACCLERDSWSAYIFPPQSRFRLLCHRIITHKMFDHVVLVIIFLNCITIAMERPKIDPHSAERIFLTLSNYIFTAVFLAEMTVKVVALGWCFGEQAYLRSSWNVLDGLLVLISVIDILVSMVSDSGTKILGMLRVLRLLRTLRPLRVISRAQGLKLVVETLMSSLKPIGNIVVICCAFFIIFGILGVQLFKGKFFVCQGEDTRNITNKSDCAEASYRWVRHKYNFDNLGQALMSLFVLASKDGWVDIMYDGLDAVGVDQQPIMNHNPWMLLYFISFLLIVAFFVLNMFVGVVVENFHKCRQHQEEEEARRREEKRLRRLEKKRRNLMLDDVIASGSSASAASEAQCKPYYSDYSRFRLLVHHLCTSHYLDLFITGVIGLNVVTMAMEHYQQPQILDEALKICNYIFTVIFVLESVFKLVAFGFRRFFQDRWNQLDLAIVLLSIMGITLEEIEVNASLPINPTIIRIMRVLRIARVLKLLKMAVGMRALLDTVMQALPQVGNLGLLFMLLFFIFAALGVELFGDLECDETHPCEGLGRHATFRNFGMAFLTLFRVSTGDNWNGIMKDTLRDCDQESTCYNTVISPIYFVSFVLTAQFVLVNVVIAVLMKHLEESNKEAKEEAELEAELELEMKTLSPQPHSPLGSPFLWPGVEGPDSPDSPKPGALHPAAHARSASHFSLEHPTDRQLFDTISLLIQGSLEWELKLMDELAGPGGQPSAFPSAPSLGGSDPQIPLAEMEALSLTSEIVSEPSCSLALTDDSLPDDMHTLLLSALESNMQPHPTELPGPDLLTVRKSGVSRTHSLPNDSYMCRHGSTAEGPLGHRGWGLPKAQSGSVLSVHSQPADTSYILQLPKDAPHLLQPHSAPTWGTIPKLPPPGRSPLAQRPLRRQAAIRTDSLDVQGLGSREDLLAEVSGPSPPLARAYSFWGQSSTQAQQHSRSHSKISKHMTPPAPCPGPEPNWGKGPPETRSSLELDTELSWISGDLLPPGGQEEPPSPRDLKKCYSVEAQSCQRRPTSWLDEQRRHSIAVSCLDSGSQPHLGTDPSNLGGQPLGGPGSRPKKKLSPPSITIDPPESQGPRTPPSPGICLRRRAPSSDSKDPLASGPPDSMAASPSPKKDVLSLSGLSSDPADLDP
Documented pIC50 across a set of molecules
To interpret pIC50, take it as minus log10 of a concentration measured in moles per litre.

Worked examples, 5 molecules total:
# mol.smiles, pIC50
records = [
    ("CC1(C)COCCN1C(=O)CN[C@H]1CC[C@H](CNC(=O)c2cc(F)cc(Cl)c2)CC1", 5.21),
    ("COc1cc(F)cc(C(=O)NC[C@H]2CC[C@@H](NCC(=O)N3CCCC3(C)C)CC2)c1", 5.42),
    ("CC(C)(C)NC(=O)CN[C@H]1CC[C@@H](CNC(=O)c2cccc(Br)c2)CC1", 5.65),
    ("O=C(NC[C@H]1CC[C@H](NCC(=O)N2CCC(F)(F)C2)CC1)c1cc(C(F)(F)F)cc(C(F)(F)F)c1", 5.80),
    ("COc1cccnc1CN[C@H]1CC[C@@H](CNC(=O)c2cc(C(F)(F)F)cc(C(F)(F)F)c2)CC1", 5.80),
]

Okay, now this molecule:
Item: `O=C(NC[C@H]1CC[C@@H](NC(=O)[C@@H]2CC[C@H](c3ccccc3)N2)CC1)c1cc(C(F)(F)F)cc(C(F)(F)F)c1` | pIC50: 5.96

###

Target: human α1H T-type channels (Homo sapiens)
Test: T-type calcium channel block, whole cell patch clamp (α1H)
Settings: HEK cells stably expressing human α1H; mainly non-inactivated protocol; values above 10 μM represented as 10 μM
Method: T-type calcium channel blocking activity was assayed in human embryonic kidney cells, HEK 293, stably transfected with the T-type calcium channel subunits. […] Standard patch-clamp techniques were employed to identify blockers of T-type currents. […] Data were analyzed using Clampfit (Axon Instruments) and SigmaPlot 4.0 (Jandel Scientific). […]
pIC50: −log10 of the molar value.
Binary classification by pIC50, with 6 as an inclusive lower bound for Criterion met; all other cases are Criterion not met.

Example entries and their recorded answers appear below.
# compound, target.desc, qualitative.label
rows = [
    ("COc1ccc(CN[C@H]2CC[C@@H](CNC(=O)c3cc(F)cc(C(F)(F)F)c3)CC2)c(OC)c1 [Compound 24]", "human α1H T-type channels (Homo sapiens)", "Criterion met"),
    ("CC(C)(C)NC(=O)CN[C@H]1CC[C@H](CNC(=O)c2cc(Cl)cc(Cl)c2)CC1 [Compound 191]", "human α1H T-type channels (Homo sapiens)", "Criterion met"),
    ("C#CC(CC)(CC)NC(=O)CN[C@H]1CC[C@@H](CNC(=O)c2cc(C(F)(F)F)cc(C(F)(F)F)c2)CC1 [Compound 47]", "human α1H T-type channels (Homo sapiens)", "Criterion met"),
    ("O=C(NC[C@H]1CC[C@@H](NCc2c(F)cccc2Cl)CC1)c1cc(F)cc(C(F)(F)F)c1 [Compound 23]", "human α1H T-type channels (Homo sapiens)", "Criterion not met"),
    ("COc1cc(F)cc(C(=O)NC[C@H]2CC[C@@H](NCC(=O)N(C)C3(C)CCC3)CC2)c1 [Compound 215]", "human α1H T-type channels (Homo sapiens)", "Criterion met"),
]

Ask: Does the reported pIC50 for O=C(NC[C@H]1CC[C@@H](NCc2c(F)cccc2Cl)CC1)c1cc(C(F)(F)F)cc(C(F)(F)F)c1 [Compound 13] fall at or above the 6 mark?
Reply: Criterion not met

Ask: Does the reported pIC50 for O=C(NC[C@H]1CC[C@@H](NCc2ncccc2O)CC1)c1cc(F)cc(C(F)(F)F)c1 [Compound 16] fall at or above the 6 mark?
Reply: Criterion not met

###

molecular target: human α1H T-type channels (Homo sapiens, UniProt O95180); test: T-type calcium channel block, whole cell patch clamp (α1H); conditions: HEK cells stably expressing human α1H; mainly non-inactivated protocol; values above 10 μM represented as 10 μM
measured.metric: pIC50
To interpret pIC50, take it as minus log10 of a concentration measured in moles per litre.

# mol.smiles, target.desc, pIC50
rows = [
    ("CC1(NC(=O)CN[C@H]2CC[C@H](CNC(=O)c3cc(F)cc(Cl)c3)CC2)CCC1", "human α1H T-type channels (Homo sapiens, UniProt O95180)", 6.51),
]

The compound `CCC(CC)NC(=O)CN[C@H]1CC[C@@H](CNC(=O)c2cc(C(F)(F)F)cc(C(F)(F)F)c2)CC1` , tested on human α1H T-type channels (Homo sapiens, UniProt O95180), showed pIC50 of 6.92

The compound `O=C(CNC[C@H]1CC[C@H](NC(=O)c2cc(C(F)(F)F)cc(C(F)(F)F)c2)CC1)NCC(F)(F)F` , tested on human α1H T-type channels (Homo sapiens, UniProt O95180), showed pIC50 of 5.68

The compound `COc1cccnc1CN[C@H]1CC[C@@H](CNC(=O)c2cc(C(F)(F)F)cc(C(F)(F)F)c2)CC1` , tested on human α1H T-type channels (Homo sapiens, UniProt O95180), showed pIC50 of 5.63

The compound `COCC(C)(C)N(C)C(=O)CN[C@H]1CC[C@@H](CNC(=O)c2cc(F)cc(OC)c2)CC1` , tested on human α1H T-type channels (Homo sapiens, UniProt O95180), showed pIC50 of 6.15

The compound `COCC(C)(C)N(C)C(=O)CN[C@H]1CC[C@@H](CNC(=O)c2cc(F)cc(Cl)c2)CC1` , tested on human α1H T-type channels (Homo sapiens, UniProt O95180), showed pIC50 of 6.38

The compound `O=C(NC[C@H]1CC[C@@H](NCc2cccnc2F)CC1)c1cc(F)cc(C(F)(F)F)c1` , tested on human α1H T-type channels (Homo sapiens, UniProt O95180), showed pIC50 of 5.31
